Test system: Staphylococcus aureus Smith
TEST DETAILS: MIC assay, modified agar dilution (CLSI), S. aureus Smith
Type: cell-based
RECORDED CONDITIONS: agar dilution, 35° C., 16-20 hr; lowest concentration that completely inhibited growth; Hydrochloride
The reader will find reported S_aureus_Smith_WT_MIC values listed item by item below.

[
  {
    "COMPOUND": "COc1ccc2ncc(F)c(CCC34CCC(NCc5ccc6c(n5)NC(=O)C(C)O6)(CC3)CO4)c2n1.Cl (single isomer, unassigned) [Example 100a]",
    "TEST SYSTEM": "Staphylococcus aureus Smith",
    "S_aureus_Smith_WT_MIC, µg/mL": 0.250
  },
  {
    "COMPOUND": "COc1ccc2ncc(F)c(C(O)C(O)C34CCC(NCc5ccc6c(n5)NC(=O)CO6)(CC3)CO4)c2n1.Cl (single isomer, unassigned) [Example 26b]",
    "TEST SYSTEM": "Staphylococcus aureus Smith",
    "S_aureus_Smith_WT_MIC, µg/mL": 1.00
  },
  {
    "COMPOUND": "COc1ccc2ncc(=O)n(CC(O)C34CCC(NCc5ccc6c(n5)NC(=O)CO6)(CC3)CO4)c2n1.Cl (single isomer, unassigned) [Example 51a]",
    "TEST SYSTEM": "Staphylococcus aureus Smith",
    "S_aureus_Smith_WT_MIC, µg/mL": 0.0310
  }
]

----------
The reader will find reported S_aureus_Smith_WT_MIC values listed item by item below.
System: Staphylococcus aureus Smith
TEST DETAILS: MIC assay, modified agar dilution (CLSI), S. aureus Smith
Assay type: cell-based
RECORDED CONDITIONS: agar dilution, 35° C., 16-20 hr; lowest concentration that completely inhibited growth
RECORDED METRIC: S_aureus_Smith_WT_MIC (µg/mL)

[
  {
    "COMPOUND": "COc1ccc2ncc(Cl)c(C(O)CC34CCC(NCc5ccc6c(n5)NC(=O)CO6)(CC3)CC4)c2n1 (single isomer, unassigned) [Example 13a]",
    "READOUT UNITS": "µg/mL",
    "OBSERVED MEASUREMENT": 0.0310
  },
  {
    "COMPOUND": "O=C1COc2ccc(CNC34CCC(C(O)Cn5c(=O)ccc6ncc(F)cc65)(CC3)OC4)nc2N1 (single isomer, unassigned) [Example 55b]",
    "READOUT UNITS": "µg/mL",
    "OBSERVED MEASUREMENT": 0.250
  },
  {
    "COMPOUND": "COc1cnc2ccc(=O)n(CC(O)C34CCC(NCc5ccc6c(n5)NC(=O)CO6)(CC3)CO4)c2c1 (single isomer, unassigned) [Example 54b]",
    "READOUT UNITS": "µg/mL",
    "OBSERVED MEASUREMENT": 0.0160
  }
]
